Provenance of the data: ChEMBL document CHEMBL5380830

Protocol Notes: Half life in mouse at 10 mg/kg, po measured upto 24 hrs by LC-MS/MS analysis
Format: ADME, organism-based
Protocol Conditions: in vivo
Quantity: half-life

half-life lookup needed for COc1cc(Nc2cc(NC(C)=O)ncc2-c2ccc3c(n2)OCC(C)(C)O3)nc(S(C)(=O)=O)c1 , thanks. 3.01 h

half-life lookup needed for COc1cc(Nc2cc(NC(C)=O)ncc2-c2ccc(F)cn2)nc(S(C)(=O)=O)c1 , thanks. 1.48 h

half-life lookup needed for COc1cc(Nc2cc(NC(C)=O)ncc2-c2ccc(C(C)(C)O)cn2)nc(S(C)(=O)=O)c1 , thanks. 2.07 h

====

Target Of Assay: Non-receptor tyrosine-protein kinase TYK2 (Homo sapiens, UniProt P29597)
Sequence (P29597 whole entry): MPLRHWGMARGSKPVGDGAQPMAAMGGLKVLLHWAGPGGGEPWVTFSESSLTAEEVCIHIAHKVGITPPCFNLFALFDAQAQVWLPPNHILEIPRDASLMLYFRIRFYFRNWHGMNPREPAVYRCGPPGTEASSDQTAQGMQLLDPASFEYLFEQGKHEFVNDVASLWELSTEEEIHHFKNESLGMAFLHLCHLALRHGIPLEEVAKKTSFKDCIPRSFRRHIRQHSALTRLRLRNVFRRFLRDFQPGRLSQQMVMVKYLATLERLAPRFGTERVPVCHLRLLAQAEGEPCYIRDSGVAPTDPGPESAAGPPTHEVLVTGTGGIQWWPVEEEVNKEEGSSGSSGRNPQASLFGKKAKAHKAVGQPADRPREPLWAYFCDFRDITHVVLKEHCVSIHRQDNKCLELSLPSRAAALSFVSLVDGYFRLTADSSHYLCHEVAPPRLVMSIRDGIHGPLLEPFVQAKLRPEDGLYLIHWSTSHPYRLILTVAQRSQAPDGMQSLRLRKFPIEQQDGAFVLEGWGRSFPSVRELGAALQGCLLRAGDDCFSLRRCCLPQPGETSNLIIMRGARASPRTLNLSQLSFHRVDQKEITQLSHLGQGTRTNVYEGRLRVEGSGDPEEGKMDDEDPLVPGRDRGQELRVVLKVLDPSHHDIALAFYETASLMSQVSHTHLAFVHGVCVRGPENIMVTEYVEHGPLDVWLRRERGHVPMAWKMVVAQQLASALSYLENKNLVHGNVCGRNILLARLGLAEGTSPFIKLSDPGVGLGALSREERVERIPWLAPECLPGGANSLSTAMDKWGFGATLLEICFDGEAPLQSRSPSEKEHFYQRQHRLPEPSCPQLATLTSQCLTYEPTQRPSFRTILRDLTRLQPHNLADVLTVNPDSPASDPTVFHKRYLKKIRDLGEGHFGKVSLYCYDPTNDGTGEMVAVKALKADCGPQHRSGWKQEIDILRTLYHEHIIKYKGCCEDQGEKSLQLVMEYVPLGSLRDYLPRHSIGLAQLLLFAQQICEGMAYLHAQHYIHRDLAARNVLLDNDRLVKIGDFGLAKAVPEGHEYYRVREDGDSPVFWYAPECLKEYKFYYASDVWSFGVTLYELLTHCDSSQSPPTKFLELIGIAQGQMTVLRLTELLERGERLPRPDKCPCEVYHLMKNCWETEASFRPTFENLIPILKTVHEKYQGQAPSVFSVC
Protocol Notes: Inhibition of TYK2 JH2 (unknown origin) by scintillation proximity assay
pIC50: −log10 of the molar value.
Quantity: pIC50

Known pIC50 results, listed for orientation:
smiles_notation=CCOc1cccc(Nc2cc(NC)n3ncc(C(=O)N[C@@H]4CCN(C)C4=O)c3n2)n1 quantity=pIC50 endpoint_result="> 6.60"
smiles_notation=CNc1cc(Nc2cccc3c2OCCC3)nc2c(C(=O)N[C@@H]3CCN(C)C3=O)cnn12 quantity=pIC50 endpoint_result="> 6.60"

Note: attention shifts to another entry.
pIC50 lookup needed for CNc1cc(Nc2cccn(-c3ccccn3)c2=O)nc2c(C(=O)N[C@@H]3CCN(C)C3=O)cnn12 , thanks. > 6.60
